Tested on: 885724-159-R-J1-PDC complex spheroid viability
Experiment: Anticancer human tumor 885724-159-R-J1-PDC patient-derived pancreatic adenocarcinoma cell line growth inhibition [GQUAD]
Settings: second compound 3.16 µM; first compound 0.00999 µM; stronger effect = lower value
observable: viability, T/C (%)
The reply should be a number in %, with the unit left off.

Example entries begin here.
# compound, measurement_units, viability, T/C
data = [
    ("Cc1[nH]c2ccccc2c1CCNCc1ccc(/C=C/C(=O)NO)cc1 + Cc1cnc(CNC(=O)c2c(=O)c3ccc(N4CCCN(C)CC4)nc3n3c2sc2ccccc23)cn1", "%", 68),
    ("Cc1[nH]c2ccccc2c1CCNCc1ccc(/C=C/C(=O)NO)cc1 + Cc1[nH]c2ccc(F)cc2c1-c1nc2c3cccnc3c3ncccc3c2[nH]1", "%", 19.2),
    ("CC[C@@]1(O)C(=O)OCc2c1cc1n(c2=O)Cc2cc3c(CN(C)C)c(O)ccc3nc2-1 + Cc1[nH]c2ccc(F)cc2c1-c1nc2c3cccnc3c3ncccc3c2[nH]1", "%", 35.1),
]

## Task Fill in: viability, T/C of Cn1ncnc1[C@H]1c2n[nH]c(=O)c3cc(F)cc(c23)N[C@@H]1c1ccc(F)cc1 + CN(C)c1ccc(Nc2c3ccc(NC(=O)CCN4CCCC4)cc3nc3cc(NC(=O)CCN4CCCC4)ccc23)cc1 is ___
## Result 76

## Task Fill in: viability, T/C of Cc1[nH]c2ccccc2c1CCNCc1ccc(/C=C/C(=O)NO)cc1 + CN(C)c1ccc(Nc2c3ccc(NC(=O)CCN4CCCC4)cc3nc3cc(NC(=O)CCN4CCCC4)ccc23)cc1 is ___
## Result 82.1

* * *

System: 885724-159-R-J1-PDC complex spheroid viability
Test: Anticancer human tumor 885724-159-R-J1-PDC cell line growth inhibition [GQUAD];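 note: spheroids exposed to agents for seven days before readout; percent of vehicle control viability where 100% = DMSO wells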
Conditions: second compound 1 µM; first compound 0.316 µM; stronger effect = lower value
observable: viability, T/C (%)
The reply should be a number in %, with the unit left off.

# compound, viability, T/C [%]
data = [
    ("CC(=O)O[C@H]1C(=O)[C@@]2(C)[C@H]([C@H](OC(=O)c3ccccc3)[C@]3(O)C[C@H](OC(=O)[C@H](O)[C@@H](NC(=O)c4ccccc4)c4ccccc4)C(C)=C1C3(C)C)[C@]1(OC(C)=O)CO[C@@H]1C[C@@H]2O + Cc1[nH]c2ccc(F)cc2c1-c1nc2c3cccnc3c3ncccc3c2[nH]1", 61.8),
    ("COc1ncnc(C2CC2)c1-c1ncc2cnn(Cc3ccc(-c4nc(C(F)(F)F)cn4C(C)C)cc3)c2n1 + CN(C)c1ccc(Nc2c3ccc(NC(=O)CCN4CCCC4)cc3nc3cc(NC(=O)CCN4CCCC4)ccc23)cc1", 81.1),
    ("CCCS(=O)(=O)Nc1ccc(F)c(C(=O)c2c[nH]c3ncc(-c4ccc(Cl)cc4)cc23)c1F + CN(C)c1ccc(Nc2c3ccc(NC(=O)CCN4CCCC4)cc3nc3cc(NC(=O)CCN4CCCC4)ccc23)cc1", 109),
]

## Task Fill in: viability, T/C of CC[C@@]1(O)C(=O)OCc2c1cc1n(c2=O)Cc2cc3c(CN(C)C)c(O)ccc3nc2-1 + CN(C)c1ccc(Nc2c3ccc(NC(=O)CCN4CCCC4)cc3nc3cc(NC(=O)CCN4CCCC4)ccc23)cc1 is ___
## Result 62.4

## Task Fill in: viability, T/C of CC(=O)O[C@H]1C(=O)[C@@]2(C)[C@H]([C@H](OC(=O)c3ccccc3)[C@]3(O)C[C@H](OC(=O)[C@H](O)[C@@H](NC(=O)c4ccccc4)c4ccccc4)C(C)=C1C3(C)C)[C@]1(OC(C)=O)CO[C@@H]1C[C@@H]2O + CN(C)c1ccc(Nc2c3ccc(NC(=O)CCN4CCCC4)cc3nc3cc(NC(=O)CCN4CCCC4)ccc23)cc1 is ___
## Result 78.6

## Task Fill in: viability, T/C of CC(C)(O)C1CCC(Nc2ccc3ncc(-c4cccc(C(F)(F)F)c4)n3n2)CC1 (centres undefined) + CN(C)c1ccc(Nc2c3ccc(NC(=O)CCN4CCCC4)cc3nc3cc(NC(=O)CCN4CCCC4)ccc23)cc1 is ___
## Result 71.1

## Task Fill in: viability, T/C of CC1COCCN1c1cc(-c2ccnn2C)c2ccnc(-c3ccn[nH]3)c2n1 (centres undefined) + CN(C)c1ccc(Nc2c3ccc(NC(=O)CCN4CCCC4)cc3nc3cc(NC(=O)CCN4CCCC4)ccc23)cc1 is ___
## Result 63.8

* * *

System: 885724-159-R-J1-PDC complex spheroid viability
Assay: Anticancer human tumor 885724-159-R-J1-PDC cell line growth inhibition [GQUAD];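 note: spheroids exposed to agents for seven days before readout; percent of vehicle control viability where 100% = DMSO wells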
Details: second compound 0.1 µM; first compound 0.0316 µM; stronger effect = lower value
Consider the following molecules and their measured viability, T/C readings.
The reply should be a number in %, with the unit left off.

Example entries begin here.
# molecule, system_name, viability, T/C, %
records = [
    ("Cn1ncnc1[C@H]1c2n[nH]c(=O)c3cc(F)cc(c23)N[C@@H]1c1ccc(F)cc1 + Cc1[nH]c2ccc(F)cc2c1-c1nc2c3cccnc3c3ncccc3c2[nH]1", "885724-159-R-J1-PDC complex spheroid viability", 93.9),
    ("COc1ccc([C@@H](O)c2cc(-c3ncnc4cc(N5CCOCC5)ccc34)c(F)cc2Cl)nn1 + CN(C)c1ccc(Nc2c3ccc(NC(=O)CCN4CCCC4)cc3nc3cc(NC(=O)CCN4CCCC4)ccc23)cc1", "885724-159-R-J1-PDC complex spheroid viability", 95.7),
    ("CC(C)(O)C1CCC(Nc2ccc3ncc(-c4cccc(C(F)(F)F)c4)n3n2)CC1 (stereo not given) + CN(C)c1ccc(Nc2c3ccc(NC(=O)CCN4CCCC4)cc3nc3cc(NC(=O)CCN4CCCC4)ccc23)cc1", "885724-159-R-J1-PDC complex spheroid viability", 97.7),
    ("C=CCn1c(=O)c2cnc(Nc3ccc(N4CCN(C)CC4)cc3)nc2n1-c1cccc(C(C)(C)O)n1 + CN(C)c1ccc(Nc2c3ccc(NC(=O)CCN4CCCC4)cc3nc3cc(NC(=O)CCN4CCCC4)ccc23)cc1", "885724-159-R-J1-PDC complex spheroid viability", 95.4),
]

## Task Fill in: viability, T/C of COc1cc(C2c3cc4c(cc3C(OC3OC5COC(C)OC5C(O)C3O)C3COC(=O)C23)OCO4)cc(OC)c1O (stereo not given) + CN(C)c1ccc(Nc2c3ccc(NC(=O)CCN4CCCC4)cc3nc3cc(NC(=O)CCN4CCCC4)ccc23)cc1 is ___
## Result 114

* * *

Tested on: 885724-159-R-J1-PDC complex spheroid viability
Test: Anticancer human tumor 885724-159-R-J1-PDC cell line growth inhibition [GQUAD]; active = viability on the fitted dose curve at most 10% of control; inactive = the rest;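 note: spheroids exposed to agents for seven days before readout; percent of vehicle control viability where 100% = DMSO wells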
Conditions: second compound 0.0316 µM; first compound 3.16 µM
Your answer must be one of the following: active, inactive

# molecule, system_name, class_assignment
records = [
    ("O=C(c1cc(Cc2n[nH]c(=O)c3ccccc23)ccc1F)N1CCN(C(=O)C2CC2)CC1 + CN(C)c1ccc(Nc2c3ccc(NC(=O)CCN4CCCC4)cc3nc3cc(NC(=O)CCN4CCCC4)ccc23)cc1", "885724-159-R-J1-PDC complex spheroid viability", "inactive"),
    ("CC(=O)O[C@H]1C(=O)[C@@]2(C)[C@H]([C@H](OC(=O)c3ccccc3)[C@]3(O)C[C@H](OC(=O)[C@H](O)[C@@H](NC(=O)c4ccccc4)c4ccccc4)C(C)=C1C3(C)C)[C@]1(OC(C)=O)CO[C@@H]1C[C@@H]2O + CN(C)c1ccc(Nc2c3ccc(NC(=O)CCN4CCCC4)cc3nc3cc(NC(=O)CCN4CCCC4)ccc23)cc1", "885724-159-R-J1-PDC complex spheroid viability", "inactive"),
    ("CC(C)n1c(=O)n(C)c2cnc3cc(F)c(-c4ccc(OCCCN5CCCCC5)nc4)cc3c21 + CN(C)c1ccc(Nc2c3ccc(NC(=O)CCN4CCCC4)cc3nc3cc(NC(=O)CCN4CCCC4)ccc23)cc1", "885724-159-R-J1-PDC complex spheroid viability", "inactive"),
    ("CC(C)(O)C1CCC(Nc2ccc3ncc(-c4cccc(C(F)(F)F)c4)n3n2)CC1 (stereo not given) + Cc1[nH]c2ccc(F)cc2c1-c1nc2c3cccnc3c3ncccc3c2[nH]1", "885724-159-R-J1-PDC complex spheroid viability", "inactive"),
    ("COc1cc(C2c3cc4c(cc3C(OC3OC5COC(C)OC5C(O)C3O)C3COC(=O)C23)OCO4)cc(OC)c1O (stereo not given) + Cc1[nH]c2ccc(F)cc2c1-c1nc2c3cccnc3c3ncccc3c2[nH]1", "885724-159-R-J1-PDC complex spheroid viability", "inactive"),
]

Turning to the following molecule.
## Task Assay outcome for CC1COCCN1c1cc(-c2ccnn2C)c2ccnc(-c3ccn[nH]3)c2n1 (stereo not given) + CN(C)c1ccc(Nc2c3ccc(NC(=O)CCN4CCCC4)cc3nc3cc(NC(=O)CCN4CCCC4)ccc23)cc1 : what was it?
## Result inactive
